Overview of recorded viscosity for various compounds
Conditions: 308.15 K; 100.7 kPa; Liquid; Falling or rolling sphere viscometry
Quick reminder: number only, in mPa·s, skip the unit.

The cases that follow already have their viscosity on record.
>>> observed_result("CCCCOC(C)=O [butyl ethanoate]")
0.58
>>> observed_result("CCCCN")
0.41
>>> observed_result("CCCC[n+]1ccn(C)c1.O=S(=O)([N-]S(=O)(=O)C(F)(F)F)C(F)(F)F")
33.73

Please look at the following compound next.
Using the record for CCCC=O , report its viscosity.
0.39

---

Conditions: 323.15 K; 100.7 kPa; Liquid; Falling or rolling sphere viscometry
Overview of recorded viscosity for various molecules
Quick reminder: number only, in mPa·s, skip the unit.

The cases that follow already have their viscosity on record.
>>> observed_result("CCCCN")
0.35
>>> observed_result("CCCC[n+]1ccn(C)c1.O=S(=O)([N-]S(=O)(=O)C(F)(F)F)C(F)(F)F")
20.32
>>> observed_result("CCCC=O")
0.32

Using the record for CCCCOC(C)=O [butyl ethanoate] , report its viscosity.
0.5

---

Overview of recorded viscosity for various compounds
Settings: 318.15 K; 100.7 kPa; Liquid; Falling or rolling sphere viscometry
Quick reminder: number only, in mPa·s, skip the unit.

The cases that follow already have their viscosity on record.
>>> observed_result("CCCCOC(C)=O [butyl ethanoate]")
0.53
>>> observed_result("CCCC[n+]1ccn(C)c1.O=S(=O)([N-]S(=O)(=O)C(F)(F)F)C(F)(F)F")
24.01
>>> observed_result("CCCCN")
0.37

Using the record for CCCC=O , report its viscosity.
0.35

---

Settings: 298.15 K; 100.7 kPa; Liquid; Falling or rolling sphere viscometry
Overview of recorded viscosity for various molecules
Quick reminder: number only, in mPa·s, skip the unit.

>>> observed_result("CCCCOC(C)=O [butyl ethanoate]")
0.67
>>> observed_result("CCCCN")
0.47
>>> observed_result("CCCC=O")
0.43

Please look at the following molecule next.
Using the record for CCCC[n+]1ccn(C)c1.O=S(=O)([N-]S(=O)(=O)C(F)(F)F)C(F)(F)F , report its viscosity.
50.04

---

Settings: 303.15 K; 100.7 kPa; Liquid; Falling or rolling sphere viscometry
± gives the expanded uncertainty stated by the source.
Overview of recorded viscosity for various molecules

>>> observed_result("CCCCN [1-butanamine]")
"0.44 ± 0.03 mPa·s"
>>> observed_result("CCCC=O [butanal]")
"0.4 ± 0.02 mPa·s"
>>> observed_result("CCCCOC(C)=O [butyl ethanoate]")
"0.64 ± 0.06 mPa·s"

Please look at the following molecule next.
Using the record for CCCC[n+]1ccn(C)c1.O=S(=O)([N-]S(=O)(=O)C(F)(F)F)C(F)(F)F , report its viscosity.
40.72 ± 4.1 mPa·s

---

Overview of recorded viscosity for various compounds
Settings: 313.15 K; 100.7 kPa; Liquid; Falling or rolling sphere viscometry
Quick reminder: number only, in mPa·s, skip the unit.

The cases that follow already have their viscosity on record.
>>> observed_result("CCCC=O")
0.36
>>> observed_result("CCCC[n+]1ccn(C)c1.O=S(=O)([N-]S(=O)(=O)C(F)(F)F)C(F)(F)F")
28.28
>>> observed_result("CCCCOC(C)=O [butyl ethanoate]")
0.57

Please look at the following compound next.
Using the record for CCCCN , report its viscosity.
0.39
